assay: Biodistribution of 99mTc complexes in mice; assay type: in vivo, Balb/c mice; settings: 3 min
OBSERVABLE: biodistribution bone (% Injected dose)

Consider the following illustrative entries.
• Cc1cc(C)c(O)c(NC(=O)CN(CCN(CC(=O)O)CC(=O)Nc2cc(C)cc(C)c2O)CC(=O)O)c1 = 3.5
• CC(C)(C)c1ccc(O)c(NC(=O)CN(CCN(CC(=O)O)CC(=O)Nc2cc(C(C)(C)C)ccc2O)CC(=O)O)c1 = 2.5

(I) O=C(O)CN(CCN(CC(=O)O)CC(=O)Nc1ccc(Cl)cc1O)CC(=O)Nc1ccc(Cl)cc1O
(II) O=C(O)CN(CCN(CC(=O)O)CC(=O)Nc1ccccc1O)CC(=O)Nc1ccccc1O
q: Select the item whose biodistribution bone value is smaller, choosing between I and II . State your choice using its label.
a: II

---

experiment: Biodistribution of 99mTc complexes in mice; type: in vivo, Balb/c mice; details: 5 min
OBSERVABLE: biodistribution spleen (% Injected dose)

* Nc1ccc(O)c(NC(=O)CN(CCN(CC(=O)O)CC(=O)Nc2cc(N)ccc2O)CC(=O)O)c1 | 0.12
* CC(C)(C)c1ccc(O)c(NC(=O)CN(CCN(CC(=O)O)CC(=O)Nc2cc(C(C)(C)C)ccc2O)CC(=O)O)c1 | 0.1
* O=C(O)CN(CCN(CC(=O)O)CC(=O)Nc1ccc(Cl)cc1O)CC(=O)Nc1ccc(Cl)cc1O | 0.07

(I) O=C(O)CN(CCN(CC(=O)O)CC(=O)Nc1ccccc1O)CC(=O)Nc1ccccc1O
(II) Cc1cc(C)c(O)c(NC(=O)CN(CCN(CC(=O)O)CC(=O)Nc2cc(C)cc(C)c2O)CC(=O)O)c1
q: Select the item whose biodistribution spleen value is smaller, choosing between I and II . State your choice using its label.
a: I

---

test: Biodistribution of 99mTc complexes in rats; assay type: in vivo, Australian Albino Wistar Rats; settings: rat, bone, rats, 30 sec, read-out: biodistribution bone
OBSERVABLE: tissue uptake at 0.5 min (%ID/g)

* Nc1ccc(O)c(NC(=O)CN(CCN(CC(=O)O)CC(=O)Nc2cc(N)ccc2O)CC(=O)O)c1 | 0.37
* O=C(O)CN(CCN(CC(=O)O)CC(=O)Nc1ccc(Cl)cc1O)CC(=O)Nc1ccc(Cl)cc1O | 0.34
* O=C(O)CN(CCN(CC(=O)O)CC(=O)Nc1cc([N+](=O)[O-])ccc1O)CC(=O)Nc1cc([N+](=O)[O-])ccc1O | 0.3
* CC(C)(C)c1ccc(O)c(NC(=O)CN(CCN(CC(=O)O)CC(=O)Nc2cc(C(C)(C)C)ccc2O)CC(=O)O)c1 | 0.61
* O=C(O)CN(CCN(CC(=O)O)CC(=O)Nc1ccccc1O)CC(=O)Nc1ccccc1O | 0.31

---

test: Biodistribution of 99mTc complexes in rats; assay type: in vivo, Australian Albino Wistar Rats; details: rat, spleen, rats, 1 min, read-out: biodistribution spleen
OBSERVABLE: tissue uptake at 1 min (%ID/g)

- O=C(O)CN(CCN(CC(=O)O)CC(=O)Nc1cc([N+](=O)[O-])ccc1O)CC(=O)Nc1cc([N+](=O)[O-])ccc1O: 0.42
- O=C(O)CN(CCN(CC(=O)O)CC(=O)Nc1ccc(Cl)cc1O)CC(=O)Nc1ccc(Cl)cc1O: 0.58
- CC(C)(C)c1ccc(O)c(NC(=O)CN(CCN(CC(=O)O)CC(=O)Nc2cc(C(C)(C)C)ccc2O)CC(=O)O)c1: 0.8

(A) O=C(O)CN(CCN(CC(=O)O)CC(=O)Nc1ccccc1O)CC(=O)Nc1ccccc1O
(B) Nc1ccc(O)c(NC(=O)CN(CCN(CC(=O)O)CC(=O)Nc2cc(N)ccc2O)CC(=O)O)c1
q: Select the item whose tissue uptake at 1 min value is smaller, choosing between A and B . State your choice using its label.
a: A
